# Target: T1, human vascular endothelial growth factor receptor-2 Fc chimera (KDR-Fc) (human, UniProt P35968 20-764)
# T1 construct: range 1-764; also called human VEGFR-2; VEGF-R2-Fc; not shown: human IgG1 Fc
# T1 sequence (P35968 20-764 limits assumed, change not shown, form in doubt): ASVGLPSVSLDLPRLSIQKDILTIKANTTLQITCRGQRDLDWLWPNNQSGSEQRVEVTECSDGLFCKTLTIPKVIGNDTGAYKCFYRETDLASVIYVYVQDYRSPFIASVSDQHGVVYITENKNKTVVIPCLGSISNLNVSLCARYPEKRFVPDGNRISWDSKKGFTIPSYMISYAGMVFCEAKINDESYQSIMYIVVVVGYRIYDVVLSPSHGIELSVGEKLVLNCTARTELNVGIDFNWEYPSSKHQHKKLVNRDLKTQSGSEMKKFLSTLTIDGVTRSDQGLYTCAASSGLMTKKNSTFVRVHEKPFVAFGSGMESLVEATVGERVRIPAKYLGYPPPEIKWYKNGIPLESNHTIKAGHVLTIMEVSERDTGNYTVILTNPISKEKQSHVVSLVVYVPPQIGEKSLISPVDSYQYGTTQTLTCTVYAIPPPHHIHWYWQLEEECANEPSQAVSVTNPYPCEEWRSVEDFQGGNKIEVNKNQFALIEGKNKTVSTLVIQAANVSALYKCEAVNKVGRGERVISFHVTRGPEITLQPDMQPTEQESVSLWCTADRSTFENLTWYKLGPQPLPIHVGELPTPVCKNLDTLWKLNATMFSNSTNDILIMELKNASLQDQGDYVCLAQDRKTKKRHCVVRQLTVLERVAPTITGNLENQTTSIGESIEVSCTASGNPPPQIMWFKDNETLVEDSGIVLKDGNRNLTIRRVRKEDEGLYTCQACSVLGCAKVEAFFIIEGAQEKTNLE
# Run Description: radioactive equilibrium binding, KDR-Fc
pKd: −log10 of the molar value.
Measurement Label: pKd

K11 (designed binder, Del 1-8) EVVAATPTSLLISWRHPHFPTRYYRITYGETGGNSPVQEFTVPLQPPTATISGLKPGVDYTITGYAVTQAPNDRVLYTPISINYRT
8.94
K3 (designed binder, Del 1-8) EVVAATPTSLLISWRHPHFPTRYYRITYGETGGNSPVQEFTVPLQPPTATISGLKPGVDYTITGYAVTAGWDDHELFIPISINYRT
8.94
K4 (designed binder, Del 1-8) EVVAATPTSLLISWRHPHFPTRYYRITYGETGGNSPVQEFTVPLQPPTATISGLKPGVDYTITGYAVTAGYNDQILMTPISINYRT
8.71

[P] K2 (designed binder, Del 1-8) EVVAATPTSLLISWRHPHFPTRYYRITYGETGGNSPVQEFTVPLQPPTATISGLKPGVDYTITGYAVTDGENGQFLLVPISINYRT
[Q] K8 (designed binder, Del 1-8; 279 used) EVVAATPTSLLISWRHPHFPTRYYRITYGETGGNSPVQEFTVPLQPPTATISGLKPGVDYTITGYAVTVTHNGHPLMTPISINYRT
Exercise: Which value of pKd is smaller, the one for P or the one for Q ? Your answer should be the label attached to the chosen record.
Solution: Q
